List of IC50 values.
tested on: DU145 cells; test: CCK-8 in vitro cytotoxicity assay, DU145; format: cell-based; settings: DU-145; human prostate cancer cell line DU145, CCK-8, 24 h exposure, mean ± SD of three experiments
endpoint.label: IC50

                  compound_structure_string  system_under_test  measurement
0  COc1cccc(N2CCN(CCc3ccc(COc4ccc5c(c4)OCO5)cc3)CC2)c1        DU145 cells      > 50 µM
1  Clc1cccc(N2CCN(CCc3ccc(COc4ccc5c(c4)OCO5)cc3)CC2)c1        DU145 cells      > 50 µM
2  OC1(c2ccccc2)CCN(CCc2ccc(COc3ccc4c(c3)OCO4)cc2)CC1        DU145 cells      38.2 µM
